Test system: HCT116 isogenic IDH1-R132C mutant cells
Experiment: Cellular 2-HG assay using HCT116 mutant IDH1 cells (R132C), RapidFire mass spectrometry
Format: cell-based
Conditions: Homo sapiens, HCT-116; cellular 2-HG level, HCT116 IDH1-R132C cells, 24 hours; read-out: HCT116 IDH1 R132C IC50 (Range)
READOUT_LABEL: IC50

C[C@H](Nc1nccc(-n2ccnc2)n1)c1cc2cc(Cl)ccc2[nH]c1=O 1000 to 10000 nM
C[C@H](Nc1nccc(-n2cccc2C(F)(F)F)n1)c1cc2cc(Cl)ccc2[nH]c1=O 1000 to 10000 nM
C[C@H](Nc1nccc(N2CCCS2(=O)=O)n1)c1cc2cc(Cl)ccc2[nH]c1=O 100 to 1000 nM
O=C1OCCN1c1ccnc(NCc2cc3cc(Cl)ccc3[nH]c2=O)n1 1000 to 10000 nM
C[C@H](Nc1nccc(NC(=O)C2CC2)n1)c1cc2cc(Cl)c(F)cc2[nH]c1=O 100 to 1000 nM

Note: attention shifts to another entry.
Entry under review: C[C@H](Nc1nccc(-c2ccncc2)n1)c1cc2cc(Cl)ccc2[nH]c1=O . Reported IC50?
1000 to 10000 nM

Values from patent US10280150B2
